Protocol text: protein stability index of a GFP-peptide fusion (GPS, HEK-293T) (PSI 1-6); higher = more stable;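 further: 24-mer peptide tiles fused after GFP, lentivirally expressed, FACS-sorted into six equal bins by GFP/DsRed ratio, decoded by Illumina sequencing, PSI is the read-weighted mean bin number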
Cond: treatment: MLN4924 1 uM, 8 h; c terminus: a fixed tail appended
protein stability index: recorded values
Readout name: protein stability index

VPECRLAEDLGNLWENTRFTDCSF [SPOPL]
3.21
LSQALNGLSDRAKEAKEFLVQLRN [TRIM9]
3.26
YKVNTPMLQSFINYCLLFLIYTVM [SLC35F2]
2.44
GQKLVVPGLLGSMALSNHYRSEDL [FBXO3]
3.17
AKVTGEVLDILTRLPESVERLTGV [FLOT1]
3.17
VCTDTDRWSLISLSNKNGKNVELK [TENT5C]
3.57
HTQVLPDVRLLPRRLPLAFRDATS [DYRK1B]
3.04
EEEEEEEAAGVVVEEELFHQQGTP [LMNB1]
5.47
SLTSGACRLDYRRPENRSFYLALY [TCF25]
2.57
YYYMGFYIHSCPKMKYKGQYRPSD [ATE1]
2.45
PWVKELQDSKEMKQLLDSKIGFEI [ZNF449]
3.01
WHPKPYCQALPYGPGYWMCCHRSQ [FBXO34]
2.08
TSKNSSTQDPSQPNSTKNQSLPKA [LCOR]
5.44
